# method description: gradient 5% acetonitrile 3 min, to 50% in 2 min, to 85% in 15 min, held 3 min, 100 µL/min
# test settings: column: Zorbax Extend-C18 2.1 x 50 mm; eluents: water / acetonitrile, 0.1% formic acid
Please mark yes if the recorded RP-LC retention time is equal to or greater than 700 s, and no if it falls below.

Exercise: I'd appreciate it if you could say whether O=C(NC1CC1)[C@@H]1C[C@H](Oc2cccnc2)CN1C(=O)c1ccsc1 has RP-LC retention time at least equal to 700 s.
Solution: no

Exercise: Queued: CCOc1ccc(C2c3[nH]c4ccccc4c3CCN2C(=O)CCC2CCCC2)cc1 (stereo not given)
Solution: yes

Exercise: Queued: Cc1cccc(-n2c(N3CCCC(C(=O)NCc4ccccc4Cl)C3)nc3ccsc3c2=O)c1 (stereo not given)
Solution: yes

Exercise: Queued: COc1cc(Cl)c(NC(=O)C2CCN(C(=O)C3Sc4ccccc4NC3=O)CC2)c(OC)c1 (stereo not given)
Solution: yes

Exercise: Queued: Cc1ccc2c(c1)C(C)(C)C(=O)N2CC(=O)NCc1ccc(F)cc1
Solution: yes

Exercise: Queued: CCCCC(=O)N1CCCN(C2=NS(=O)(=O)C(c3ccccc3)=C2C)CC1
Solution: yes

Exercise: Queued: Cc1ccn2cc(C(=O)NCc3ccc(N(C)C)cc3)nc2c1
Solution: no

Exercise: Queued: CCn1nc(C)c(CCNC(=O)Cn2c3ccccc3c3cnn(C)c(=O)c32)c1C
Solution: no

Exercise: Queued: O=C(Nc1cccn2nc(C3CCC3)nc12)C1CCCO1 (stereo not given)
Solution: yes

Exercise: Queued: Cc1cc(Br)ccc1NC(=O)c1cc2n(n1)CCCC2
Solution: yes

Exercise: Queued: COC(CNC(=O)c1cc(C)nn1-c1ccccc1)OC
Solution: no

Exercise: Queued: Cc1ccc(Nc2c(-c3ccc(N4CCOCC4)cc3)nc3c(C)cccn23)cc1
Solution: yes

Exercise: Queued: O=C(Nc1ccc(OC(F)(F)F)cc1)C(=O)Nc1cccc([N+](=O)[O-])c1
Solution: yes

Exercise: Queued: COC(=O)CN1C(=O)C2CCCN2C(=O)c2ccccc21 (stereo not given)
Solution: no

Exercise: Queued: CN(CC1CCOCC1)S(=O)(=O)c1cccc(Cl)c1
Solution: yes

Exercise: Queued: O=c1ccc2cc(S(=O)(=O)N3CCN(c4ccccn4)CC3)ccc2[nH]1
Solution: no

Exercise: Queued: O=C1CC(c2noc(CCc3ccccc3)n2)CN1c1ccc(F)cc1 (stereo not given)
Solution: yes

Exercise: Queued: COc1ccccc1-c1nc(C2CCN(C(=O)c3cc4cc(Cl)ccc4[nH]3)CC2)no1
Solution: yes

Exercise: Queued: CCOC(=O)c1cnc2c(cnn2CC)c1NN=C(C)C
Solution: yes
